molecular target: recombinant Human β-Amyloid Peptide (1-42) (Homo sapiens); construct: recombinant Human β-Amyloid Peptide (1-42); purchased BioLegend 843801; assay: Mass spectrometry (MS) binding assay; settings: 22 pmol/μL peptide, 1100 pmol/μL compound (50×); direct infusion Q-TOF MS; stoichiometry of the binding
Sequence (P05067 672-713 limits assumed): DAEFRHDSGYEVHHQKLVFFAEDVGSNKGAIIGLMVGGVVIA

{"columns": ["COMPOUND", "TESTED ON", "Number of molecules bound to Aβ42"],
 "data": [
  ["NC1CCC(S(=O)(=O)O)C1 (stereo not drawn) [Compound 2005, 3-aminocyclopentane-1-sulfonic acid]", "recombinant Human β-Amyloid Peptide (1-42) (Homo sapiens)", "[+1]"],
  ["N[C@@H](CO)C(=O)NC1CCC(S(=O)(=O)O)C1 (stereo partly drawn) [Compound 2012]", "recombinant Human β-Amyloid Peptide (1-42) (Homo sapiens)", "[+4]"],
  ["CNC(=O)[C@@H]1C[C@@H](S(=O)(=O)O)CN1 [Compound 2084]", "recombinant Human β-Amyloid Peptide (1-42) (Homo sapiens)", "[+5]"],
  ["O=C(N[C@@H](CO)C(=O)O)C1CCC(S(=O)(=O)O)C1 (stereo partly drawn) [Compound 2037]", "recombinant Human β-Amyloid Peptide (1-42) (Homo sapiens)", "[+1]"],
  ["O=C([C@@H]1C[C@@H](S(=O)(=O)O)CN1)N(CCO)CCO [Compound 2087]", "recombinant Human β-Amyloid Peptide (1-42) (Homo sapiens)", "[+4]"],
  ["O=C(N[C@@H](Cc1ccc(O)cc1)C(=O)NC1CCC(S(=O)(=O)O)C1)OCc1ccccc1 (stereo partly drawn) [Compound 2021]", "recombinant Human β-Amyloid Peptide (1-42) (Homo sapiens)", "No Binding"],
  ["CS(=O)(=O)CC[C@H](N)C(=O)NC1CCC(S(=O)(=O)O)C1 (stereo partly drawn) [Compound 2014]", "recombinant Human β-Amyloid Peptide (1-42) (Homo sapiens)", "[+3]"],
  ["CC(C)C[C@H](NC(=O)OCc1ccccc1)C(=O)NC1CCC(S(=O)(=O)O)C1 (stereo partly drawn) [Compound 2024]", "recombinant Human β-Amyloid Peptide (1-42) (Homo sapiens)", "No Binding"],
  ["C[C@H](NC(=O)[C@@H]1C[C@H](S(=O)(=O)O)CN1)C(=O)O [Compound 2061]", "recombinant Human β-Amyloid Peptide (1-42) (Homo sapiens)", "[+4]"],
  ["CS(=O)(=O)CC[C@H](NC(=O)OCc1ccccc1)C(=O)NC1CCC(S(=O)(=O)O)C1 (stereo partly drawn) [Compound 2026]", "recombinant Human β-Amyloid Peptide (1-42) (Homo sapiens)", "[+2]"],
  ["O=C(NCc1ccccc1)[C@@H]1C[C@H](S(=O)(=O)O)CN1 [Compound 2055]", "recombinant Human β-Amyloid Peptide (1-42) (Homo sapiens)", "[+4]"],
  ["CC(C)C[C@H](N)C(=O)NC1CCC(S(=O)(=O)O)C1 (stereo partly drawn) [Compound 2011]", "recombinant Human β-Amyloid Peptide (1-42) (Homo sapiens)", "[+1]"],
  ["O=C([C@@H]1C[C@H](S(=O)(=O)O)CN1)N(CCO)CCO [Compound 2059]", "recombinant Human β-Amyloid Peptide (1-42) (Homo sapiens)", "[+2]"],
  ["O=C(NCc1ccccc1)[C@@H]1C[C@@H](S(=O)(=O)O)CN1 [Compound 2083]", "recombinant Human β-Amyloid Peptide (1-42) (Homo sapiens)", "[+2]"],
  ["O=C(N[C@@H](Cc1ccccc1)C(=O)O)C1CCC(S(=O)(=O)O)C1 (stereo partly drawn) [Compound 2034]", "recombinant Human β-Amyloid Peptide (1-42) (Homo sapiens)", "No Binding"],
  ["O=C(NCc1ccccc1)C1CCC(S(=O)(=O)O)C1 (stereo not drawn) [Compound 2030]", "recombinant Human β-Amyloid Peptide (1-42) (Homo sapiens)", "[+1]"],
  ["CC(C)[C@H](N)C(=O)NC1CCC(S(=O)(=O)O)C1 (stereo partly drawn) [Compound 2010]", "recombinant Human β-Amyloid Peptide (1-42) (Homo sapiens)", "[+2]"],
  ["CCN(CC)C(=O)[C@@H]1C[C@@H](S(=O)(=O)O)CN1 [Compound 2085]", "recombinant Human β-Amyloid Peptide (1-42) (Homo sapiens)", "[+4]"]
]}
